Counter-ions that a name gives are not always drawn.
property.measured: melting point

These recorded examples may help you get a feel for the data.
[[record]]
compound = "COc1ccc2c(c1)c(CC(C)NCC1CCCCC1)c1n2CCC1 (racemic) (as salt: hydrochloride)"
observed_result = "210 to 213 °C"

[[record]]
compound = "CC(N)Cc1c2n(c3cc(F)c(F)cc13)CCC2 (racemic) (as salt: hydrochloride)"
observed_result = "264 to 266 °C"


So for CC(N)Cc1c2n(c3cccc(Cl)c13)CCC2 (racemic) (as salt: fumarate) , the logged melting point turned out to be 207 to 208 °C

Values were extracted from patent US6433175B1.
